measurementTarget: Recombinant IKKα (Homo sapiens)
Construct: purchased Millipore, Dundee, UK
Sequence (O15111 1-745): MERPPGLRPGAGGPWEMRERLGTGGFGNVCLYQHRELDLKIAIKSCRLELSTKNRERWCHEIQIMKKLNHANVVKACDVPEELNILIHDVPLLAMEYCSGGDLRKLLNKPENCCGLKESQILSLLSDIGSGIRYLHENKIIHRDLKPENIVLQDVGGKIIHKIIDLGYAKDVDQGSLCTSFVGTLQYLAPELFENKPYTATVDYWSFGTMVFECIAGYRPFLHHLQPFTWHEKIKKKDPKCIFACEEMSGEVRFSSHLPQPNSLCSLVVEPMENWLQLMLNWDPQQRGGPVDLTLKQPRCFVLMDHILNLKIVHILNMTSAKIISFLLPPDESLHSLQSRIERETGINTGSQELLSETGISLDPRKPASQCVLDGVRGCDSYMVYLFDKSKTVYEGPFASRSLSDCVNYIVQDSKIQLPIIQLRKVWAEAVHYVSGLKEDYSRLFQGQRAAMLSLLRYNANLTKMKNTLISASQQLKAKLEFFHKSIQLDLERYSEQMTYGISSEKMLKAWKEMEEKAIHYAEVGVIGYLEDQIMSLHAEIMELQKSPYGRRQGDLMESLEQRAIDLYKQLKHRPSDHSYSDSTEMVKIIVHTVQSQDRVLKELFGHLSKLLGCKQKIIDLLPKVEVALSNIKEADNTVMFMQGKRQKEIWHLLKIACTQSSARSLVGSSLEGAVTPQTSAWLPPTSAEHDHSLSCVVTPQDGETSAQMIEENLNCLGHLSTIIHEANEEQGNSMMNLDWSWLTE
procedureSummary: DELFIA IKKα kinase assay (apparent Ki, Cheng-Prusoff)
Format: biochemical
testParameters: non-italicised figure: DELFIA assay
measuredAttribute: Ki (nM)

Nc1cc(-c2cc(-c3ccccc3Cl)c3[nH]nc(N)c3c2)ccn1 = 224
Nc1nccc(-c2ccc3[nH]nc(N)c3c2)c1C#CCCCN1CCOCC1 = 350
CC(C)C(=O)Nc1cc(-c2cc(C#CC(C)(C)C)c3[nH]nc(N)c3c2)ccn1 = 273

P: Nc1cc(-c2cc(C#Cc3ccccc3)c3[nH]nc(N)c3c2)ccn1
Q: Nc1cc(-c2cc(-c3cccc(CN4CCOCC4)c3)c3[nH]nc(N)c3c2)ccn1
Request: Between the two listed entries P and Q , which has its Ki at the higher number? Choose, then provide that item's label.
Result: Q

1: CCNC(=O)Nc1cc(-c2ccc3[nH]nc(N)c3c2)ccn1
2: Nc1n[nH]c2ccc(-c3ccnc(NC(=O)NCc4ccccn4)c3)cc12
Request: Smaller Ki value? Options are 1 and 2 Choose, then provide that item's label.
Result: 1

I: CC(C)Nc1cc(-c2ccc3[nH]nc(N)c3c2)ccn1
II: Nc1nccc(-c2ccc3[nH]nc(N)c3c2)c1C#Cc1ccccc1
III: Nc1n[nH]c2c(Cl)cc(-c3ccnc4[nH]ccc34)cc12
IV: Nc1cc(-c2cc(-c3ccc(CO)cc3)c3[nH]nc(N)c3c2)ccn1
Request: List these items ordered by Ki, big to small. Order the labels as requested and give them as your answer.
Result: I, IV, II, III

----------
measurementTarget: Recombinant IKKβ (Homo sapiens)
Construct: purchased Millipore, Dundee, UK
Sequence (O14920 whole entry): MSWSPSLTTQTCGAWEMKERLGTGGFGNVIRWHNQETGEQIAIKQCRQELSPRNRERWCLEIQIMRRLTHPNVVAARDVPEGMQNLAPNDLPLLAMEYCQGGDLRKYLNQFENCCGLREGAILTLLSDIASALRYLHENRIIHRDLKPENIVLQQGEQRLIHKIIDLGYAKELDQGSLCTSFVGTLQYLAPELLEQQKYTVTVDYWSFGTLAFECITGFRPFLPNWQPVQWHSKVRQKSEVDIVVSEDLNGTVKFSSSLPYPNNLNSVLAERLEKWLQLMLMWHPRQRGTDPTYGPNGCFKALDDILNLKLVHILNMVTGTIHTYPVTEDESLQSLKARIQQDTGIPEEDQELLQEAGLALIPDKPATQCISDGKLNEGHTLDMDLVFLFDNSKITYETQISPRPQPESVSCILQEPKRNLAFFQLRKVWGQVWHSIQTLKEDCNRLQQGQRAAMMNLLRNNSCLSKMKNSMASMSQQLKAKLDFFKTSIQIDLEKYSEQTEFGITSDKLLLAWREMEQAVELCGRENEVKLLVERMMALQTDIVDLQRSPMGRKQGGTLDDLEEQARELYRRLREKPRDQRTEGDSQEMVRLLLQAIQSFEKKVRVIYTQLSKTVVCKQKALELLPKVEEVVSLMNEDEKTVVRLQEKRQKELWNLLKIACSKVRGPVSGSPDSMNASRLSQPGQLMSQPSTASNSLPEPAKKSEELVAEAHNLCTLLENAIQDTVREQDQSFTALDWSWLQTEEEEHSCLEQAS
procedureSummary: DELFIA IKKβ kinase assay (apparent Ki, Cheng-Prusoff)
Format: biochemical
testParameters: non-italicised figure: DELFIA assay
measuredAttribute: Ki (nM)

Nc1n[nH]c2ccc(-c3ccnc(NC(=O)Nc4ccc(F)cc4)c3)cc12 [Example 62] = 115

A: Nc1n[nH]c2ccc(-c3ccnc(NCCCCO)c3)cc12 [Example 22]
B: CCOC(=O)Nc1cc(-c2ccc3[nH]nc(N)c3c2)ccn1 [Example 35]
Request: Between the two listed entries A and B , which has its Ki at the higher number? Choose, then provide that item's label.
Result: A
(A: 1470 nM, B: 470 nM)

I: CC(C)(O)C#Cc1cc(-c2ccnc(N)c2)cc2c(N)n[nH]c12 [Example 140]
II: Nc1n[nH]c2ccc(-c3ccnc(NC(=O)NCCCO)c3)cc12 [Example 42]
Request: Smaller Ki value? Options are I and II Choose, then provide that item's label.
Result: II
(II: 670 nM, I: 3000 nM)
